Test: soluble on expression in E. coli; label from the status in PepcDB or PDB records

{"columns": ["Seq String", "soluble on expression in E. coli"],
 "data": [
  ["MAHHHHHHMSSPQVVCEAKKAFEANKRVYESVLLTFKGVDGYDVYNCSVPFSYKGKTHIYGRVEKRDIWAASHVRLFEETGKDEFTAVPDGMTWLLEDPFVSSVKGEALFGGTRIRKVSNRLLSYYCDFFRGGIEQGLYFTTGPDNMKDIRCVELANGSIGVFSRPKTDVYTCIGFTIIDDLSELTQKVINEAEPLNVLHPGAWGGVNQAYLLTSGKVGCIAHYSYNSKDDKDCPTSVYLNYSFVLDPETKQAEMERIIGTRSCYPDYPVKAERLIDCAFSSGIVMREDGKCDLYSGLGDTCEGRIAIDYPFEGYGAVVDQLSF", "soluble"],
  ["HHHHHHSSGLVPRGSHMGGTGSGMTPGEAWKKQLNKLGKTQFEQYKRSCILEVDRTHARDSLENGIQNGIAVSRGSAKLRWMEERGYVKPTGIVVDLGCGRGGWSYYAASLKNVKKVMAFTLGVQGHEKPIMRTTLGWNLIRFKDKTDVFNMEVIPGDTLLCDIGESSPSIAVEEQRTLRVLNCAKQWLQEGNYTEFCIKVLCPYTPLIMEELSRLQLKHGGGLVRVPLSRNSTHEMYWVSGTRTDVVGTVSNVSRLLTRRMLNKPQPPTLEDDVILDMGTR", "soluble"]
]}
